The origin of these recorded values is paper PMC10587159.

Tested on: human breast adenocarcinoma cells MCF7
protocol-text: cells
Format: cell-based
conditions-used: 24 h
pIC50: −log10 of the molar value. Non-standard residues stand in square brackets, D forms with d. Residues, ends and D or L forms follow the SMILES beside them. *: point of attachment. dMet(O) = CS(=O)CC[C@@H](N)C(=O)O; Myristoyl = CCCCCCCCCCCCCC(=O)*; Lauroyl = CCCCCCCCCCCC(=O)*; NH(CH2)4NH2 = NCCCCN*
Quick list: pIC50 per entry.

Below: 2 molecules and their reported pIC50.
CCCCCCCCCCCC(=O)N[C@H](CCSC)C(=O)N[C@H](CC(N)=O)C(=O)N1CCC[C@H]1C(=O)N[C@H](C(=O)N[C@H](Cc1ccccc1)C(=O)N1CCC[C@H]1C(=O)N[C@@H](Cc1c[nH]c2ccccc12)C(=O)N[C@@H](C(=O)N[C@@H](C)C(=O)N[C@H](C)C(=O)N[C@@H](CO)C(=O)N[C@@H](C)C(=O)NCCCCN)C(C)C)C(C)C [Compound 7, Glidonin G] (Lauroyl-[dM][dN]PV[dF]PW[dV]A[dA]SA-{NH(CH2)4NH2})	< 4.70
CC(C)[C@H](NC(=O)[C@@H]1CCCN1C(=O)[C@@H](CC(N)=O)NC(=O)[C@H](N)CC[S+](C)[O-])C(=O)N[C@H](Cc1ccccc1)C(=O)N1CCC[C@H]1C(=O)N[C@@H](Cc1c[nH]c2ccccc12)C(=O)N[C@@H](C(=O)N[C@@H](C)C(=O)N[C@H](C)C(=O)N[C@@H](CO)C(=O)N[C@@H](C)C(=O)NCCCCN)C(C)C (stereo partly drawn) [Compound 2, Glidonin B] (H-[dMet(O)][dN]PV[dF]PW[dV]A[dA]SA-{NH(CH2)4NH2})	< 4.70

Task item: Specify measured pIC50 for CCCCCCCCCCCCCC(=O)N[C@H](CCSC)C(=O)N[C@H](CC(N)=O)C(=O)N1CCC[C@H]1C(=O)N[C@H](C(=O)N[C@H](Cc1ccccc1)C(=O)N1CCC[C@H]1C(=O)N[C@@H](Cc1c[nH]c2ccccc12)C(=O)N[C@@H](C(=O)N[C@@H](C)C(=O)N[C@H](C)C(=O)N[C@@H](CO)C(=O)N[C@@H](C)C(=O)NCCCCN)C(C)C)C(C)C [Compound 10, Glidonin J] (Myristoyl-[dM][dN]PV[dF]PW[dV]A[dA]SA-{NH(CH2)4NH2}) .
Reply: < 4.70

###

System: human breast adenocarcinoma cells MDA-MB-231
protocol-text: cells
Format: cell-based
conditions-used: Homo sapiens, MDA-MB-231, MTT assay; Supplementary Table 11; read-out: IC50 MDA-MB-231
Source text: The two human acute lymphoblastic leukemia cells K562 and Kasumi, two human breast adenocarcinoma cells MCF7 and MDA-MB-231, human hepatoma cell HepG-2, human lung adenocarcinoma cell A549, human gastric cancer cell SGC-7901, human colon cancer cell HCT-116, human ovarian cancer cell line SKOV3, or human lung epithelial normal cell 2B were obtained from Beyotime Biotechnology and utilized to test the cytotoxicity of compounds by MTT assays as previous study. […]
metric: IC50
A complete answer gives the number followed by the unit.

Task item: Specify measured IC50 for COc1cccc2c1C(=O)c1c(O)c3c(c(O)c1C2=O)C[C@@](O)(C(=O)CO)C[C@@H]3O[C@H]1C[C@H](N)[C@H](O)[C@H](C)O1 [doxorubicin, reference compound] .
Reply: 630 nM

###

Quick list: pIC50 per entry.
System: human cells Kasumi
protocol-text: MTT cytotoxicity assay, Kasumi
Type: cell-based
conditions-used: 24 h
Non-standard residues stand in square brackets, D forms with d. Residues, ends and D or L forms follow the SMILES beside them. *: point of attachment. Lauroyl = CCCCCCCCCCCC(=O)*; NH(CH2)4NH2 = NCCCCN*
For clarity, pIC50 is expressed as the negative log10 of concentration in mol/L.

CCCCCCCCCCCC(=O)N[C@H](CC(C)C)C(=O)N[C@H](CC(N)=O)C(=O)N1CCC[C@H]1C(=O)N[C@H](C(=O)N[C@H](Cc1ccccc1)C(=O)N1CCC[C@H]1C(=O)N[C@@H](Cc1c[nH]c2ccccc12)C(=O)N[C@@H](C(=O)N[C@@H](C)C(=O)N[C@H](C)C(=O)N[C@@H](CO)C(=O)N[C@@H](C)C(=O)NCCCCN)C(C)C)C(C)C [Compound 9, Glidonin I] (Lauroyl-[dL][dN]PV[dF]PW[dV]A[dA]SA-{NH(CH2)4NH2})	5.02

Task item: Specify measured pIC50 for CCCCCCCCCCCC(=O)N[C@H](CCSC)C(=O)N[C@H](CC(N)=O)C(=O)N1CCC[C@H]1C(=O)N[C@H](C(=O)N[C@H](Cc1ccccc1)C(=O)N1CCC[C@H]1C(=O)N[C@@H](Cc1c[nH]c2ccccc12)C(=O)N[C@@H](C(=O)N[C@@H](C)C(=O)N[C@H](C)C(=O)N[C@@H](CO)C(=O)N[C@@H](C)C(=O)NCCCCN)C(C)C)C(C)C [Compound 7, Glidonin G] (Lauroyl-[dM][dN]PV[dF]PW[dV]A[dA]SA-{NH(CH2)4NH2}) .
Reply: 5.10

###

Tested on: human colon cancer cell HCT-116
protocol-text: cells
Assay type: cell-based
conditions-used: Homo sapiens, HCT-116; MTT assay; Supplementary Table 11; read-out: IC50 HCT116
Text: The two human acute lymphoblastic leukemia cells K562 and Kasumi, two human breast adenocarcinoma cells MCF7 and MDA-MB-231, human hepatoma cell HepG-2, human lung adenocarcinoma cell A549, human gastric cancer cell SGC-7901, human colon cancer cell HCT-116, human ovarian cancer cell line SKOV3, or human lung epithelial normal cell 2B were obtained from Beyotime Biotechnology and utilized to test the cytotoxicity of compounds by MTT assays as previous study. […]
metric: IC50 (nM)
Enter your answer as a number in nM; do not include the unit.

Task item: Specify measured IC50 for COc1cccc2c1C(=O)c1c(O)c3c(c(O)c1C2=O)C[C@@](O)(C(=O)CO)C[C@@H]3O[C@H]1C[C@H](N)[C@H](O)[C@H](C)O1 [doxorubicin, reference compound] .
Reply: 590

###

Test system: human breast adenocarcinoma cells MDA-MB-231
protocol-text: cells
Assay type: cell-based
conditions-used: 24 h
Non-standard residues stand in square brackets, D forms with d. Residues, ends and D or L forms follow the SMILES beside them. *: point of attachment. Lauroyl = CCCCCCCCCCCC(=O)*; NH(CH2)4NH2 = NCCCCN*
metric: pIC50
For clarity, pIC50 is expressed as the negative log10 of concentration in mol/L.

Task item: Specify measured pIC50 for CCCCCCCCCCCC(=O)N[C@H](CCSC)C(=O)N[C@H](CC(N)=O)C(=O)N1CCC[C@H]1C(=O)N[C@H](C(=O)N[C@H](Cc1ccccc1)C(=O)N1CCC[C@H]1C(=O)N[C@@H](Cc1c[nH]c2ccccc12)C(=O)N[C@@H](C(=O)N[C@@H](C)C(=O)N[C@H](C)C(=O)N[C@@H](CO)C(=O)N[C@@H](C)C(=O)NCCCCN)C(C)C)C(C)C [Compound 7, Glidonin G] (Lauroyl-[dM][dN]PV[dF]PW[dV]A[dA]SA-{NH(CH2)4NH2}) .
Reply: 5.32

###

Tested on: human cells Kasumi
protocol-text: MTT cytotoxicity assay, Kasumi
Format: cell-based
conditions-used: 24 h
Description: The two human acute lymphoblastic leukemia cells K562 and Kasumi, two human breast adenocarcinoma cells MCF7 and MDA-MB-231, human hepatoma cell HepG-2, human lung adenocarcinoma cell A549, human gastric cancer cell SGC-7901, human colon cancer cell HCT-116, human ovarian cancer cell line SKOV3, or human lung epithelial normal cell 2B were obtained from Beyotime Biotechnology and utilized to test the cytotoxicity of compounds by MTT assays as previous study. […]
Non-standard residues stand in square brackets, D forms with d. Residues, ends and D or L forms follow the SMILES beside them. *: point of attachment. Myristoyl = CCCCCCCCCCCCCC(=O)*; NH(CH2)4NH2 = NCCCCN*
metric: IC50 (µM)
Enter your answer as a number in µM; do not include the unit.

CSCC[C@@H](N)C(=O)N[C@H](CC(N)=O)C(=O)N1CCC[C@H]1C(=O)N[C@H](C(=O)N[C@H](Cc1ccccc1)C(=O)N1CCC[C@H]1C(=O)N[C@@H](Cc1c[nH]c2ccccc12)C(=O)N[C@@H](C(=O)N[C@@H](C)C(=O)N[C@H](C)C(=O)N[C@@H](CO)C(=O)N[C@@H](C)C(=O)NCCCCN)C(C)C)C(C)C [Compound 1, Glidonin A] (H-[dM][dN]PV[dF]PW[dV]A[dA]SA-{NH(CH2)4NH2})	18.3

Task item: Specify measured IC50 for CCCCCCCCCCCCCC(=O)N[C@H](CCSC)C(=O)N[C@H](CC(N)=O)C(=O)N1CCC[C@H]1C(=O)N[C@H](C(=O)N[C@H](Cc1ccccc1)C(=O)N1CCC[C@H]1C(=O)N[C@@H](Cc1c[nH]c2ccccc12)C(=O)N[C@@H](C(=O)N[C@@H](C)C(=O)N[C@H](C)C(=O)N[C@@H](CO)C(=O)N[C@@H](C)C(=O)NCCCCN)C(C)C)C(C)C [Compound 10, Glidonin J] (Myristoyl-[dM][dN]PV[dF]PW[dV]A[dA]SA-{NH(CH2)4NH2}) .
Reply: 1.39
